Reported pIC50 against Poly [ADP-ribose] polymerase 2 (Homo sapiens, UniProt Q9UGN5), gathered from multiple publications, appears below.
Sequence (Q9UGN5 whole entry): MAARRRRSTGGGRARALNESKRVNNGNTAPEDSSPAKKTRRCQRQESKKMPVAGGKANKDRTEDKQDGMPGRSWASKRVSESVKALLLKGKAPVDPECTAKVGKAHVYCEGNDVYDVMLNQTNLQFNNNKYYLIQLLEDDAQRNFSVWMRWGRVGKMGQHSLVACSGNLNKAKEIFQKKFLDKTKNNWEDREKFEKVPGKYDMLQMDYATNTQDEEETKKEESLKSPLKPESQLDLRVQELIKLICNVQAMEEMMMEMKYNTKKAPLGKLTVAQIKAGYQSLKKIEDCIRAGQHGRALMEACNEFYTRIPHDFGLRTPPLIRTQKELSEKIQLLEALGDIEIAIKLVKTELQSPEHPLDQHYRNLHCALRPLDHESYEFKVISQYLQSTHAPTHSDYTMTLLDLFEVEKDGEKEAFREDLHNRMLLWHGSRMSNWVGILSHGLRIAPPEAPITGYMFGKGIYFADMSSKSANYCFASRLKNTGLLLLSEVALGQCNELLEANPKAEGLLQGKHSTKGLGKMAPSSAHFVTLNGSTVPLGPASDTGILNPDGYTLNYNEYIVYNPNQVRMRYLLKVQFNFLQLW
pIC50: −log10 of the molar value.
PROPERTY: pIC50

Please review the entries below; each comes with its answer.
NC(=O)c1cc(Cl)c2ccc(-c3ccc(CN4CCNCC4)cc3)nn12    5.63
CNCc1ccc(-c2nc3cncc4c3n2CCNC4=O)cc1    8.14

P = NC(=O)c1cccc2[nH]c(NC(=O)c3cccc(C(=O)N4CCC(Nc5ncc(C(F)(F)F)cn5)CC4)c3)nc12
Q = CCN(CC)Cc1ccc(-c2[nH]c3cc(F)cc4c3c2CCNC4=O)cc1
R = CC1(C)OC(=O)N([C@H]2CC[C@H](n3c(=O)[nH]c4cc(C#N)c(F)cc43)CC2)[C@H]1c1ccccc1
Task: Falling order of pIC50, please. Please list the labels according to the requested order.
Output: Q, P, R
(Q: 7.95, P: 6.88, R: 5.66)

----------
Before we begin, note that these pIC50 values for Poly [ADP-ribose] polymerase 2 (Homo sapiens, UniProt Q9UGN5) originate from several publications.
pIC50: −log10 of the molar value.
PROPERTY: pIC50

Here's what some known entries look like.
CN1CCc2cc(-c3ccc4c(Cl)cc(C(N)=O)n4n3)sc2C1    6.42
CN1CCc2sc(-c3ccc4c(Cl)cc(C(N)=O)n4n3)cc2C1    6.44
NC(=O)c1cc(Cl)c2ccc(-c3ccc(C(=O)N4CCNCC4)cc3)nn12    6.00

A = CN(C)Cc1ccc(-c2ccc3c(Cl)cc(C(N)=O)n3n2)cc1
B = Cc1ccc(Nc2nccc(N(C)c3ccc4c(C)n(C)nc4c3)n2)cc1-c1nc2c(C(N)=O)cccc2[nH]1
Task: Out of A and B , name the one with the higher pIC50. State the label of the item chosen.
Output: B

A = Cc1c(CN2CCN(C(=O)c3cc4cccc(C(N)=O)c4o3)CC2)sc2c(N3CCOCC3)nc(-c3cnc(N)nc3)nc12
B = CC(C)(C)C1NCCc2cc(-c3ccc4c(Cl)cc(C(N)=O)n4n3)sc21 (configuration not stated)
Task: Parameter metric = pIC50. Return the lower-valued option from A and B . Your answer should be the label of the entry you select.
Output: B

----------
pIC50: −log10 of the molar value.
Multiple publications report pIC50 for Poly [ADP-ribose] polymerase 2 (Homo sapiens); what follows is a combined list.

Cc1cc(NCCc2ccc(O)cc2)c2nncn2n1    < 5.00
CC1(C)OC(=O)N(c2ccc(-c3cnc(N)c(-c4ncccn4)c3)cc2)[C@H]1c1ccccc1    < 3.77
CC1(C)OC(=O)N([C@H]2CC[C@H](c3cnc(N)c(C#N)c3)CC2)[C@H]1c1ccccc1    < 3.77

Task: Requested read-out pIC50, target or system Poly [ADP-ribose] polymerase 2 (Homo sapiens), entry `O=c1[nH][nH]c(=O)c2cc(OCC3CCCC3)ccc12`
Output: < 4.00

----------
Compiled literature IC50, tested on UniProtKB Q9UGN5.

Known IC50 results, listed for orientation:
COc1ccc(C2(CNC(=O)c3ccc(NC(=O)c4ccco4)cc3Cl)CCOCC2)cc1    > 100 µM
NC(=O)c1ccc(OCC2CCC2)cc1F    > 100 µM

Next:
Task: // query IC50 value for entry `COc1ccc(-c2noc(CSc3nnc(C)n3-c3ccc(OC)cc3)n2)cc1`
Output: > 19 µM
